Source listed as PubChem BioAssay (NCATS).

# Test system: Zika virus NS2B-NS3 protease (linked construct)
# ASSAY_TEXT: 384 well plate NINDS Rhodamine confirmatory qHTS for Zika virus inhibitors (AID 1347164);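 note: fluorescence from protease cleavage of Ac-LKRR-rhodamine 110 substrate; nearly all actives have a fitted effect of over 65% in size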
# PROTOCOL_CONDITIONS: rhodamine-110 peptide substrate fluorescence; series mostly up to 1 mM
Inconclusive results are not listed. Active and inactive are the calls of the source. Calls come from the whole dose curve; as a rule, active = well fitted inhibition curve with a large enough effect; inconclusive = small, poorly fitted or top-dose-only effect; inactive = no such curve, though single readings can be large or run the other way.
Permitted responses: active, inactive

Lookup: What did this assay record as the result for `Cc1oc2c(cc(NS(=O)(=O)c3ccc(F)cc3)c3ccccc32)c1C(=O)OCc1ccccc1` ?
Found: active

Lookup: What did this assay record as the result for N#Cc1ccc(OCC2CN(Cc3c[nH]c4ccccc34)C(=O)c3c(ccnc3-c3ccc(OCC(=O)O)cc3)O2)cc1 (stereo not drawn) ?
Found: active

Lookup: What did this assay record as the result for `Cc1ccc(NC(=O)c2ccc3c(O)c(S(=O)(=O)c4ccc(Cl)cc4)c(=O)[nH]c3c2)cc1` ?
Found: active

Lookup: What did this assay record as the result for `CN(Cc1ccc(C(=O)O)cc1)c1ccc(OCc2c(-c3c(Cl)cccc3Cl)noc2C2CC2)nc1C(F)(F)F` ?
Found: active

Lookup: What did this assay record as the result for `O=C(O)c1cc(NCc2cc(O)ccc2O)ccc1O` ?
Found: active

Lookup: What did this assay record as the result for `O=c1cc(-c2cc(O)c(O)c(O)c2)oc2cc(O)cc(O)c12` ?
Found: inactive

Lookup: What did this assay record as the result for `O=C(O)c1c(-c2ccccc2)oc2ccc(OCc3ccc(Cl)c(Cl)c3)cc12` ?
Found: active

Lookup: What did this assay record as the result for O=C(OC1Cc2c(O)cc(O)cc2OC1c1cc(O)c(O)c(O)c1-c1c(C2Oc3cc(O)cc(O)c3CC2OC(=O)c2cc(O)c(O)c(O)c2)cc(O)c(O)c1O)c1cc(O)c(O)c(O)c1 (stereo not drawn) ?
Found: inactive
